Numbers sourced from ChEMBL document CHEMBL1201862.

Tested on: UACC-62
Assay: NCI tumour cell line growth inhibition, 48 h
Active and inactive are the calls of the source. No stated cut-off is given here; in the data, active = GI50 up to about 1.1 µM and inactive = higher.
Assign GI50 to each entry below.

Known results for molecules:
>>> print(df.to_string())
                                   molecule       measuredresult
0     O=C(Nc1cccc2ccccc12)Oc1ccccc1C1CCCCC1   15.9 µM (inactive)
1  c1ccc(C2SCc3nc4ccccc4n32)cc1 (centres undefined)   37.2 µM (inactive)
2  O=C(CC/C(CC(=O)c1ccc(Cl)cc1)=N/O)Nc1ccc(Cl)c(Cl)c1   18.3 µM (inactive)
3  COC[C@@H](/N=C/c1ccc([N+](=O)[O-])cc1)C(C)C  > 100 µM (inactive)
4  COC(C(=O)NN)c1ccccc1 (centres undefined)  > 100 µM (inactive)
5  CC(=O)OC1C(O)C(C)OC(OC(=O)C2CCC3C(C2)OC2(CC(OC(=O)/C=C/c4ccccc4)C(C)CO2)C32CO2)C1OC1OC(C)C(O)C(O)C1O (centres undefined)    0.039 µM (active)

For each listed entry, give its GI50.
1. O=S1(=O)c2cnccc2N=C(NCc2cccc3ccccc23)N1c1ccccc1
2. CNC(=O)N(C)COC
3. CCCCCc1c(Cl)nc(Cl)nc1Cl
4. CCCCC(=O)OC[n+]1ccc(-c2c(COC(=O)NC(C)C)c(COC(=O)NC(C)C)c3n2CCC3)cc1
5. COc1ccc2cc(NC(=O)Nn3cnnc3)ccc2c1
6. O=c1c2cccnc2oc2c(Cl)cc(-c3nnn[nH]3)cc12
7. CC(=O)OC/C=C(/CCl)CCC(Br)C(C)(C)Br.CC(=O)OC/C=C(\CCl)CCC(Br)C(C)(C)Br (centres undefined)
8. CC(=O)NC1C(O)C(O)C(CO)OC1n1nc(SCc2ccccc2)c(=O)[nH]c1=O (centres undefined)

Key:
1: > 22.4 µM (inactive); 2: > 100 µM (inactive); 3: 15.3 µM (inactive); 4: 30.9 µM (inactive); 5: > 100 µM (inactive); 6: > 100 µM (inactive); 7: > 10 µM (inactive); 8: > 100 µM (inactive)

* * *

Tested on: A549
Test: NCI tumour cell line growth inhibition, 48 h
Calls of active or inactive are those of the source. Cut-off read from the data, not from the text of the source: active = GI50 up to about 1.1 µM and inactive = higher.
Please reply with one of these outcomes: Yes for active, No for inactive

>>> print(df.to_string())
                                  molecule  discretelabel
0  Nc1ccc([C@H]2C(=O)N[C@H]3CCC[C@H]32)cc1             No

Exercise: Dear colleague, could you share the recorded outcome for C(=N\c1ccc(-c2nc3ccccc3s2)cc1)/c1ccc[nH]1 when you have a moment?
Key: No

* * *

System: NCI-H23
Test: NCI tumour cell line growth inhibition, 48 h
Activity calls are given as the source filed them. Rule as the data show it: active = GI50 up to about 1.1 µM and inactive = higher.
measureName: GI50

Known results for molecules:
>>> print(df.to_string())
                                   molecule  measurename       measuredresult
0  CCN(CC)CCCn1c(=O)c2cccnc2n2c3c(=O)n(C)c(=O)n(C)c3nc12         GI50  > 100 µM (inactive)
1  S=c1nc(Nc2ccc(Cl)cc2)c2c3c(sc2[nH]1)CCCC3         GI50   45.1 µM (inactive)

Here is another molecule to look at.
Exercise: GI50 for CC1CC2CC(=O)CC3(C1)C2CCCN3CCCO (stereo not drawn) ?
Key: > 100 µM (inactive)
